- Protocol description: Bioavailability in rat at 10 umol/kg, po
- Assay type: ADME, organism-based
- Details: in vivo
Below: a set of entries, each annotated with reported bioavailability.
Measured quantity: bioavailability

• C[C@@H](NC(=O)Nc1cccc2[nH]ncc12)c1ccc(C(F)(F)F)cc1 = 53%
• CC(NC(=O)Nc1cccc2cnccc12)c1ccc(C(F)(F)F)cc1 (configuration not stated) = 47%

* * *

- Protocol description: Volume of distribution in dog at 10 umol/kg, iv
- Assay type: ADME, organism-based, Canis lupus familiaris
- Details: in vivo, read-out: Vbeta
Below: a set of entries, each annotated with reported Vd.
Measured quantity: Vd

- O=C(NCc1ccc(C(F)(F)F)cc1)Nc1cccc2cnccc12: 0.5 L/kg
- CC(NC(=O)Nc1cccc2cnccc12)c1ccc(C(F)(F)F)cc1 (configuration not stated): 1.1 L/kg
